Data origin: the supplement of paper PMC3334620

Target: Yap3 (UniProt P38749)
Sequence: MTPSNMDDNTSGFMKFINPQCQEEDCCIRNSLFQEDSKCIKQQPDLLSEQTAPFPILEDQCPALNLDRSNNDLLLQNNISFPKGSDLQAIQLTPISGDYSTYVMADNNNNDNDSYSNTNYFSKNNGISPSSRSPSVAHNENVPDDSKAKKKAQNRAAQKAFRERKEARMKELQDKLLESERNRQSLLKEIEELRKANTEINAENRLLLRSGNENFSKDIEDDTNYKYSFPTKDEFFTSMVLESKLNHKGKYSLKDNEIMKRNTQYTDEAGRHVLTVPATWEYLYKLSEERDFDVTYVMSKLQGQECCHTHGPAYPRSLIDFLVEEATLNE
Test: PBM E-score (8-mer binding enrichment) (E-score (-0.5 to 0.5)); higher = stronger / more preferred TF binding
Details: protein concentration: 100 nM; construct: GST-full length
In all, about 33,000 sequences were measured (“E-score (-0.5 to 0.5)”: median about -0.0034, highest 2% from about 0.25 on). The list comes from a sample in which the highest values are over-represented; it also holds close analogues and randomly drawn sequences.
quantity_name: PBM E-score

INSERT INTO measurements (seq_string, target, quantity_name, endpoint_value) VALUES
  ('CGCTCAAG', 'Yap3 (UniProt P38749)', 'PBM E-score', -0.114);

GET /values?item= CTTTATTA &system= Yap3 (UniProt P38749) returns PBM E-score: 0.199

GET /values?item= TCGAAGAA &system= Yap3 (UniProt P38749) returns PBM E-score: -0.0713

GET /values?item= ATAAGAAA &system= Yap3 (UniProt P38749) returns PBM E-score: 0.207

GET /values?item= GGAAAAAA &system= Yap3 (UniProt P38749) returns PBM E-score: 0.248

GET /values?item= GAAAAAAC &system= Yap3 (UniProt P38749) returns PBM E-score: 0.255

GET /values?item= CGGTTGAG &system= Yap3 (UniProt P38749) returns PBM E-score: -0.052

GET /values?item= GGAAAAAC &system= Yap3 (UniProt P38749) returns PBM E-score: 0.3

GET /values?item= AACAATAT &system= Yap3 (UniProt P38749) returns PBM E-score: 0.329
